src = IntAct's records for PubMed 31515488

B1: Keratin, type II cytoskeletal 6A (Homo sapiens), P02538 (parent)
chain: MASTSTTIRSHSSSRRGFSANSARLPGVSRSGFSSVSVSRSRGSGGLGGACGGAGFGSRSLYGLGGSKRISIGGGSCAISGGYGSRAGGSYGFGGAGSGFGFGGGAGIGFGLGGGAGLAGGFGGPGFPVCPPGGIQEVTVNQSLLTPLNLQIDPTIQRVRAEEREQIKTLNNKFASFIDKVRFLEQQNKVLETKWTLLQEQGTKTVRQNLEPLFEQYINNLRRQLDSIVGERGRLDSELRGMQDLVEDFKNKYEDEINKRTAAENEFVTLKKDVDAAYMNKVELQAKADTLTDEINFLRALYDAELSQMQTHISDTSVVLSMDNNRNLDLDSIIAEVKAQYEEIAQRSRAEAESWYQTKYEELQVTAGRHGDDLRNTKQEIAEINRMIQRLRSEIDHVKKQCANLQAAIADAEQRGEMALKDAKNKLEGLEDALQKAKQDLARLLKEYQELMNVKLALDVEIATYRKLLEGEECRLNGEGVGQVNISVVQSTVSSGYGGASGVGSGLGLGGGSSYSYGSGLGVGGGFSSSSGRAIGGGLSSVGGGSSTIKYTTTSSSSRKSYKH
partner: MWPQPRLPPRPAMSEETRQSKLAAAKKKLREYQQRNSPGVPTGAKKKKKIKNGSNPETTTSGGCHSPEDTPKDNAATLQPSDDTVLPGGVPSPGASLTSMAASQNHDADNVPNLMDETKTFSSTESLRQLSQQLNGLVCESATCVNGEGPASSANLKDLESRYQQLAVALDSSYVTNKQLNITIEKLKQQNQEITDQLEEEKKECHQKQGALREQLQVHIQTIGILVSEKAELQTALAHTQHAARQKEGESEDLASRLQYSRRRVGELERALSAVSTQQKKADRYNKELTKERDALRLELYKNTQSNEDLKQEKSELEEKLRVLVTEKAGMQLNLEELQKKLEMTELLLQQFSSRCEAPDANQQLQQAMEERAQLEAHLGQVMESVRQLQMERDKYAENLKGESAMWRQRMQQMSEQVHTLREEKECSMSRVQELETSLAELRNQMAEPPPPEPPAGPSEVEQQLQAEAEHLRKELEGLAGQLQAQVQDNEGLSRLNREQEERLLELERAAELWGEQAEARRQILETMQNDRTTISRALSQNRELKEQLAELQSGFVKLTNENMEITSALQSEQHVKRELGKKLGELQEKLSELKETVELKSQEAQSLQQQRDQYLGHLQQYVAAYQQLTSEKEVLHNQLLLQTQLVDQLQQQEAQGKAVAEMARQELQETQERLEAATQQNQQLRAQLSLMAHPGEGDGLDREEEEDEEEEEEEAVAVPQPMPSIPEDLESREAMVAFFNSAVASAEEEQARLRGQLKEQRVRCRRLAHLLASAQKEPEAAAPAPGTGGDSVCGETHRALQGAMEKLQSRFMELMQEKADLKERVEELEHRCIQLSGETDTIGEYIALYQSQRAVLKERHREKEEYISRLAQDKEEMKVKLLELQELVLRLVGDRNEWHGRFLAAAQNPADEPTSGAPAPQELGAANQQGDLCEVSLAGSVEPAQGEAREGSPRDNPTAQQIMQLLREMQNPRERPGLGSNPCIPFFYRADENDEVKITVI

Variants of: B1
measurementParameters: with goga2_human GOLGA2, Q08379
observable: effect of a mutation on the interaction

Example variants with recorded effect of a mutation on the interaction:
[[record]]
mutantlabel = "A335T"
observable = "effect of a mutation on the interaction"
testvalue = "with no effect"

[[record]]
mutantlabel = "R559G"
observable = "effect of a mutation on the interaction"
testvalue = "with no effect"

[[record]]
mutantlabel = "L210M"
observable = "effect of a mutation on the interaction"
testvalue = "with no effect"

[[record]]
mutantlabel = "R415H"
observable = "effect of a mutation on the interaction"
testvalue = "with no effect"

[[record]]
mutantlabel = "V523F"
observable = "effect of a mutation on the interaction"
testvalue = "with no effect"


From here, focus on the item given below.
Query (variant): T552S ; field requested: effect of a mutation on the interaction with no effect
